Please respond with reported pKi for every item in the list.
target: Adenosine receptor A1 (Homo sapiens, UniProt P30542); assay: Displacement of [3H]DPCPX from human A1AR expressed in CHO cells incubated for 50 mins by radioligand binding assay; assay type: cell-based
Sequence (P30542 whole entry): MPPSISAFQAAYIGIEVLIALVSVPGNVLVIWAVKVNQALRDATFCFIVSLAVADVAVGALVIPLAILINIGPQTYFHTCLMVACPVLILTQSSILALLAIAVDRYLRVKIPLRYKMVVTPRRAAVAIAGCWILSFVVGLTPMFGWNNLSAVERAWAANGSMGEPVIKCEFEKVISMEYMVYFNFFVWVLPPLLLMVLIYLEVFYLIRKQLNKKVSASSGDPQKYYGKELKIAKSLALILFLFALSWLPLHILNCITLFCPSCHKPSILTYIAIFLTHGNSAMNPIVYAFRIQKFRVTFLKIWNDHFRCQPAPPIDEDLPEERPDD
Please treat pKi as minus the base-10 logarithm of the molar concentration.

The recorded pKi for entry O=C1CC(C(=O)Nc2ccccc2)c2c(nc(SCc3ccccc3F)[nH]c2=O)N1 (stereo unspecified) equals 5.14

So for "N#Cc1c(N)nc2c(c1-c1ccc3c(c1)OCO3)CCCC2" , the logged pKi turned out to be 7.13

Input CCC(C(=O)n1nc(-c2ccccc2)nc1N)c1ccccc1 (stereo unspecified) . Output pKi: 4.97

// recorded pKi for "Oc1ccccc1Nc1nc(-c2ccccc2)c2cc(Cl)ccc2n1" : 4.70

pKi for Cc1ccc(C2=CC(c3ccccc3Cl)n3nc(CCCO)nc3N2)cc1 (stereo unspecified) is 4.73

Form: molecule = Cc1cc(=O)n2c(n1)NC(Nc1cccc(C)c1C)=NC2c1ccc(F)cc1 (stereo unspecified) ; pKi = 5.49
